Target: CaMKKβ (Rattus norvegicus)
Construct: recombinant CaMKKβ purified from E. coli; with calmodulin (Ca2+/CaM)
Assay: […]-GTP kinase assay with GST-CaMKIα ([…]-293, K49E); Lineweaver-Burk
measured-endpoint: IC50

{"columns": ["compound-structure-string", "measured-endpoint", "assay-result"],
 "data": [
  ["O=C(O)c1ccc2c3c1cccc3c(=O)n1c3ccccc3nc21", "IC50", "38.2 nM"]
]}

====

Biological target: CaMKKα (Rattus norvegicus, UniProt P97756)
Construct: recombinant CaMKKα purified from E. coli; with calmodulin (Ca2+/CaM)
Assay: […]-GTP kinase assay with GST-CaMKIα ([…]-293, K49E); Lineweaver-Burk
measured-endpoint: IC50

{"columns": ["compound-structure-string", "assayed-system", "assay-result"],
 "data": [
  ["O=C(O)c1ccc2c3c1cccc3c(=O)n1c3ccccc3nc21", "CaMKKα (Rattus norvegicus, UniProt P97756)", "0.255 µM"]
]}
